Target: T1, human GIP receptor (human, UniProt P48546 22-466)
T1 construct: whole, on cells; also called hGIPR
T1 sequence (looked up): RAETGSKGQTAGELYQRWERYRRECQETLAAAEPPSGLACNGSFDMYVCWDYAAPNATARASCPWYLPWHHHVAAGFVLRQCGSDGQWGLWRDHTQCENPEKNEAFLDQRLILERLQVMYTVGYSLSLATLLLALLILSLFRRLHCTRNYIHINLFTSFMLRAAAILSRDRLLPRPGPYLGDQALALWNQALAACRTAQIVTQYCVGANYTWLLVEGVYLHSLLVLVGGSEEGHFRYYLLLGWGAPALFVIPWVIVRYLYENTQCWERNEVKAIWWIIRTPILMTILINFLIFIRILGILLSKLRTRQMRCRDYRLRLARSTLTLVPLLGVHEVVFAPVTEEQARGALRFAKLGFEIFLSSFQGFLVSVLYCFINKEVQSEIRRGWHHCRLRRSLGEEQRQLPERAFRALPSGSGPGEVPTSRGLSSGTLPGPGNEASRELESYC
Assay: homologous competition binding vs 125I-GIP(2-30)NH2, COS-7 cells transfected with human GIP receptor
Ends that are not written are not given here.
recorded_endpoint: pIC50
FYI, pIC50 means -log10 of a concentration in mol per litre.

(Q) Look up and report measured pIC50 for this entry: AEGTFISDYSIAMDKIHQQDFVNWLLAQK-NH2 (also called human GIP(2-30)NH2; hGIP(2-30)) [GIP(2-30)NH2]
(A) 8.57
